Test system: HL-60 (Acute Promyelocytic Leukemia)
ASSAY: Cell viability analysis, leukemia HL-60
Format: cell-based, human
MEASUREMENT CONTEXT: Homo sapiens, HL-60, 72 h, drug 10 μM, 72 hours, WST-1, OD450 nm; read-out: cell viability (survival rate), HL-60
MEASURED PARAMETER: viability at 10 µM (%)
Entry rule: numbers only, all in %.

CC(=O)SCC(Cc1ccccc1)C(=O)NCC(=O)OCc1ccccc1 (stereo not shown) [Racecadotril (Acetorphan), Racecadotril] :: 122
NC(=O)C(c1ccccc1)(c1ccccc1)[C@@H]1CCN(CCc2ccc3c(c2)CCO3)C1 [Darifenacin HBr] :: 78.2
Cc1cn([C@H]2C=C[C@@H](CO)O2)c(=O)[nH]c1=O [Stavudine] :: 96

Now, please, on to the next compound.
Value sought: viability at 10 µM, system HL-60 (Acute Promyelocytic Leukemia), item CC(C)(C)c1nc(-c2cccc(NS(=O)(=O)c3c(F)cccc3F)c2F)c(-c2ccnc(N)n2)s1 [Dabrafenib (GSK2118436), Dabrafenib] . Result: 72.9

All values here come from patent US10105357B2.
